Numbers sourced from ChEMBL document CHEMBL1201862.

# Test system: OVCAR-5
# test_summary: NCI tumour cell line growth inhibition, 48 h
The source made the active and inactive calls. No stated cut-off is given here; in the data, active = GI50 up to about 1.1 µM and inactive = higher.

molecule	GI50
OCC1OC(n2cnc3c2N=CNC[C@H]3O)C(Cl)C1O (stereo not given in full)	> 100 µM (inactive)
O=C(NCC#CCO)C(F)(F)F	> 100 µM (inactive)
CCOC(=O)N1C(=O)C2C3C=CC(C2C1=O)C1C2C(=O)N(C(=O)OCC)C(=O)C2C31 (stereo not given)	> 100 µM (inactive)
COc1ccc(C(=O)C(C(=O)CCC(=O)Nc2ccc(Cl)c(Cl)c2)c2ccc(OC)cc2)cc1 (stereo not given)	> 100 µM (inactive)
COc1ccc2c(CCNC(C)=O)c(C(C)=O)[nH]c2c1	> 100 µM (inactive)
NCc1ccc(O)c(O)c1O	17.3 µM (inactive)
COc1ccccc1/N=C1\SCCN1C(=S)Nc1ccc(S(=O)(=O)/N=C/N(C)C)cc1	87.5 µM (inactive)
COC(=O)/N=[N+](\[O-])C(c1ccc(Cl)cc1)c1ccc(Cl)cc1	80.9 µM (inactive)
c1ccc2cc3n[se]nc3cc2c1	> 100 µM (inactive)
Cc1nc(-c2cc3ccccc3oc2=O)cs1	> 100 µM (inactive)
Cc1cc2nc3c(C#N)c(-c4ccccc4)cc(Nc4ccc(Cl)cc4)n3c2cc1C	> 100 µM (inactive)
COc1cccc(C2c3cc4c(cc3OC(Nc3ccccc3)C2C)OCO4)c1OC (stereo not given)	44.5 µM (inactive)
COc1cc2c(cc1OC)-c1cc3ccccc3c(=O)n1CC2	31.8 µM (inactive)
CCc1cccc(C(C)CC)c1NC(=O)CC1C(=O)Nc2ccccc2[S+]1[O-] (stereo not given)	33.1 µM (inactive)
O=C1N/C(=N/N=C/c2ccccc2)N/C1=C\c1cccs1	28.6 µM (inactive)
O=[N+]([O-])C(=C/c1ccccc1)/C(=C\c1ccccc1)[N+](=O)[O-]	22 µM (inactive)
Cn1cnc([N+](=O)[O-])c1Sc1nc2cccnc2s1	47.2 µM (inactive)
CN(C)CCNC(=O)c1cccc2ccc(-c3ccc(-c4ccccc4)cc3)nc12	3.92 µM (inactive)
Cc1cc(O)nc(NNC(C#N)c2ccc([N+](=O)[O-])cc2)n1 (stereo not given)	> 100 µM (inactive)
COc1cc(O)c2c(c1)C(=O)C=C(Cl)C2=O	> 100 µM (inactive)
O=C(c1ccccc1)N(C(=O)c1ccccc1)c1nc(SCc2ccccc2)ns1	33.7 µM (inactive)
C=CC(c1ccccc1)[C@@]1(OC(C)=O)C(=O)C(=O)OC1C1COC(C)(C)O1 (stereo not given in full)	18.5 µM (inactive)
O=C1C(Br)=CC2(C=C1Br)CCNC1=C2C(=O)c2[nH]cnc2C1=O	15.9 µM (inactive)
C=CC1=CC(C)C[C@]1(O)C(=O)OC (stereo not given in full)	< 0.01 µM (active)
CNn1c(-c2ccccc2)n[nH]c1=O	> 100 µM (inactive)
